test system: HOP-92; test: NCI tumour cell line growth inhibition, 48 h
Calls of active or inactive are those of the source. Cut-off read from the data, not from the text of the source: active = GI50 up to about 1.1 µM and inactive = higher. Where a SMILES comes first, the peptide text is derived from it. [ ]: non-standard residue; d: D form. The star is where a group is joined. Iva = CC[C](C)(N)C(=O)O; Boc = CC(C)(C)OC(=O)*; X54 = C1CCC(=NO*)C1
Classes used: active, inactive

{"molecule": "Brc1ccc(-c2nnc(-c3nn(-c4ccccc4)c4nc5ccccc5nc34)o2)cc1", "qualitative.label": "inactive"}
{"molecule": "Cc1cc2c(C)n(Cc3ccc(Cl)cc3Cl)nc2c(C(=O)O)c1C", "qualitative.label": "inactive"}
{"molecule": "c1ccc2c(c1)cc1n2CCc2c-1[nH]c1ccccc21", "qualitative.label": "inactive"}
{"molecule": "O=C(Oc1cc(=O)c(OC(=O)c2ccccc2)co1)c1ccccc1", "qualitative.label": "inactive"}
{"molecule": "O=C1c2cccc3cccc(c23)C(=O)N1CCCNCCCCNCCCN1C(=O)c2cccc3cccc(c23)C1=O", "qualitative.label": "active"}
{"molecule": "CC(=O)OC1CC2C(C)(C)C(=O)C=CC2(C)C2CCC3(C)C(c4ccoc4)OC(=O)C4OC43C12C (configuration not stated)", "qualitative.label": "inactive"}
{"molecule": "CCn1c2ccccc2c2ccc(C3C4C(=O)N(c5cccc6ccccc56)C(=O)C4ON3C(C(N)=O)c3ccccc3)cc21 (configuration not stated)", "qualitative.label": "inactive"}
{"molecule": "CC1=NCC[N+]1(CCc1ccccc1)Cc1ccccc1 (configuration not stated)", "qualitative.label": "inactive"}
{"molecule": "C#CCCOC(=O)c1ccccc1OC(C)=O", "qualitative.label": "inactive"}
{"molecule": "COc1cc2c(cc1OC)C1(c3ccccc3)ON=C(c3ccccc3)N1CS2 (configuration not stated)", "qualitative.label": "inactive"}
{"molecule": "COc1ccc(OC)c2c1-c1nnnn1CCC2(C)C", "qualitative.label": "inactive"}
{"molecule": "COC1=CC(=O)c2c(O)c3c(c(O)c2C1=O)C=C(C)OC3O (configuration not stated)", "qualitative.label": "inactive"}
{"molecule": "C/C(=C(/C)c1ccc(O)cc1)c1ccc(O)cc1", "qualitative.label": "inactive"}
{"molecule": "CCOC(=O)C1(C)CCC(C(=O)OC)C1=O (configuration not stated)", "qualitative.label": "inactive"}
{"molecule": "C[C@H](NC1=C(Cl)C(=O)c2c(O)ccc(O)c2C1=O)C(=O)Nc1ccc([N+](=O)[O-])cc1", "qualitative.label": "inactive"}
{"molecule": "CC(C)(C)OC(=O)N1C[C@H](CC(=O)OCc2ccccc2)C[C@H]1C(=O)OCC(Cl)(Cl)Cl", "qualitative.label": "inactive"}
{"molecule": "C/C(CN1C(=O)c2ccccc2C1=O)=N\\NS(=O)(=O)c1ccccc1", "qualitative.label": "inactive"}
{"molecule": "COc1cc(-c2ccccc2N)c2cccnc2c1OC", "qualitative.label": "inactive"}
{"molecule": "O=N/N=c1\\o[n-][n+](CCc2ccccc2)c1Cc1/c(=N/N=O)o[n-][n+]1CCc1ccccc1", "qualitative.label": "inactive"}
{"molecule": "Cc1cc(N(CCOS(C)(=O)=O)CCOS(C)(=O)=O)ccc1/C=N/c1ccc(-c2csc(-c3ccccc3)n2)c(Cl)c1", "qualitative.label": "inactive"}
{"molecule": "C1=CC2SSSC2C1 (configuration not stated)", "qualitative.label": "inactive"}
{"molecule": "COc1ccc(CCN(C)C2CCC(C#N)(c3ccc(OC)c(OC)c3)CC2)cc1OC (configuration not stated)", "qualitative.label": "inactive"}
{"molecule": "COc1ccc(/C=C/CO)cc1OC", "qualitative.label": "inactive"}
{"molecule": "CCOc1ccc(/C=C2\\N=C(c3ccc([N+](=O)[O-])cc3)OC2=O)cc1", "qualitative.label": "inactive"}
{"molecule": "CCC(C)(NC(=O)C(C)NC(=O)OC(C)(C)C)C(=O)NC(C)C(=O)NC(C)(CC)C(=O)ON=C1CCCC1 (configuration not stated) (Boc-A[Iva]A[Iva]-X54; configuration not given here)", "qualitative.label": "inactive"}
{"molecule": "O=C1[C@@H](O)[C@@H]2CCCC[C@@]23CCCN13", "qualitative.label": "inactive"}
{"molecule": "CN1/C(=N\\c2ccccc2)S/C1=N/c1ccccc1", "qualitative.label": "inactive"}
{"molecule": "CCOc1ccc(NCC2CC/C(=C\\c3ccc(Cl)cc3)C2=O)cc1 (configuration not stated)", "qualitative.label": "inactive"}
{"molecule": "Cc1occc1C(=S)Nc1ccc(Cl)c(C(=O)OCC(C)C)c1", "qualitative.label": "inactive"}
{"molecule": "COC(=O)C1CCC(C)CC1=O (configuration not stated)", "qualitative.label": "inactive"}
{"molecule": "COc1ccc(NC(=O)c2cc(NC(=O)/C=C/c3ccccc3)c(OC)c(OC)c2)cc1", "qualitative.label": "inactive"}
{"molecule": "N#C/C(=C\\c1ccc[nH]1)C(=O)c1ccccc1", "qualitative.label": "inactive"}
{"molecule": "O=c1ccn([C@@H]2C[C@H]2CO)c(=O)[nH]1", "qualitative.label": "inactive"}
{"molecule": "O=C(/C=N/O)Nc1cc(Cl)c(Cl)cc1Cl", "qualitative.label": "inactive"}
{"molecule": "COc1ccc(CNc2cc(OC)c(OC)c(OC)c2)cc1", "qualitative.label": "inactive"}
{"molecule": "Nc1ccc2c(SCC(=O)Nc3ccccc3-c3ccccc3NC(=O)CSc3c4ccccc4nc4cc(N)ccc34)c3ccccc3nc2c1", "qualitative.label": "inactive"}
{"molecule": "CCCN1C(=O)CC(C)N(Cc2ccccc2Cl)C1=S (configuration not stated)", "qualitative.label": "inactive"}
{"molecule": "COc1ccc(OC)c(/C=C/C(=O)C(C)(C)C)c1", "qualitative.label": "inactive"}
{"molecule": "CC(C)=NC(C(=O)O)C(C)(C)S (configuration not stated)", "qualitative.label": "inactive"}
{"molecule": "COc1ccc(CCn2ccc(=O)c(O)c2C)cc1OC", "qualitative.label": "inactive"}
{"molecule": "COc1cc2c(c(OC)c1OC)-c1ccc(SC)c(=O)cc1[C@@H](NCc1cccc(C#N)c1)CC2", "qualitative.label": "active"}
{"molecule": "Fc1cc(C2=C[C@H](c3ccc(Cl)cc3)NC(=S)N2)c(Cl)cc1Cl", "qualitative.label": "inactive"}
